Cited source for all entries: the Human Domainome abundance scans (Beltran et al. 2025)

Property: abundance fitness; scope: individual variants
B1: Far upstream element-binding protein 2, residues 142 to 214; numbered along this chain, Q92945 (parent)
chain: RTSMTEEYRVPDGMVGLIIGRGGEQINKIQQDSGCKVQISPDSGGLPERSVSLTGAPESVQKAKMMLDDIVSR

# Variants of: B1
# assay info: abundance fitness (aPCA) (normalised: wild type 0, dead -1); higher = more abundant; growth selection in yeast, the domain comes from the species named
# run conditions: Homo sapiens
Please respond with just the number, no unit label.

>>> measured_number("RTSMTEEYRVPDGMVGLIIGRGGEQINKIQQDSGCKVQISRDSGGLPERSVSLTGAPESVQKAKMMLDDIVSR [P41R]")
-0.061
>>> measured_number("RTSMTEEYRVPDGMVGLIIGRGGEQINKIQFDSGCKVQISPDSGGLPERSVSLTGAPESVQKAKMMLDDIVSR [Q31F]")
-0.105
>>> measured_number("RTSMTEEYRVPDGMVGLIIGRGGEQINKIQQDSGCKVQISPPSGGLPERSVSLTGAPESVQKAKMMLDDIVSR [D42P]")
-0.006
>>> measured_number("RTSMTEEYRVPDGMVGLIIGRWGEQINKIQQDSGCKVQISPDSGGLPERSVSLTGAPESVQKAKMMLDDIVSR [G22W]")
-0.308
>>> measured_number("RTSMTEEYRVPDGMVGLIIGRGGEQINKIQQDSGCKVQISPDSGGLPERSVSLTGFPESVQKAKMMLDDIVSR [A56F]")
-0.315

Input RTSMTEEYRVPDGMVGLIIGRGGEQINKIQQHSGCKVQISPDSGGLPERSVSLTGAPESVQKAKMMLDDIVSR [D32H] . Output abundance fitness: -0.072

Record RTSMTEEYRVPDGMVGLIIGRGGEQINKIQQDSGCKVQISPDSGGLPERSVSLTGAPESVQKAKMMLDGIVSR [D69G] , field abundance fitness: -0.057
